Values compiled from patent US20260042834A1.

MEASURED TARGET: T1, corticotropin-releasing hormone (CRH) peptide (human and mouse (same sequence), not fully specified)
T1 peptide: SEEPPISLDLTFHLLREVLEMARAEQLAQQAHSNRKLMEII
METHOD SUMMARY: cell-based or functional assay
hCRHR1 Luciferase Reporter Assay IC50 for assorted binders
Return type: number; implicit unit nM.

Would you please look over these solved cases?
BINDER	hCRHR1 Luciferase Reporter Assay IC50 [nM]
PR302341-36 (antibody, human IgG1, kappa, V domains shown) VH: QVQLVQSGAEVKKPGASVKVSCKASGYTFTDYFMKWVRQAPGQGLEWMGVINPNSGDIFYNQKFKGRVTMTVDKSISTAYMELSRLRSDDTAVYYCARGTDRALFAYWGQGTLVTVSS VL: DVVMTQSPLSLPVTLGQPASISCRSGQSIVHSEGNTYLEWYQQRPGQSPRLLIYKVSNRFSGVPDRFSGSGSGTDFTLKISRVEAEDLGVYYCFQGSHIPWTFGGGTKVEIKR	1.77
PR302341-40 (antibody, human IgG1, kappa, V domains shown) VH: QVQLVQSGAEVKKPGASVKVSCKASGYTFTDYFMKWVRQAPGQGLEWMGVINPNSGDIFYNQKFKGRVTMTVDKSISTAYMELSRLRSDDTAVYYCARGTDRALFAYWGQGTLVTVSS VL: DVVMTQSPLSLPVTLGQPASISCRSGQSIVHSSGNTYLEWYQQRPGQSPRLLIYKVSNRFSGVPDRFSGSGSGTDFTLKISRVEAEDLGVYYCFQGSHIPWTFGGGTKVEIKR	1.82

Let's switch to this binder now.
*Q* State, in one line, measured hCRHR1 Luciferase Reporter Assay IC50 of PR302341-71 (antibody, human IgG1, kappa, V domains shown) VH: QVQLVQSGAEVKKPGASVKVSCKASGYTFTDYFMKWVRQAPGQRLEWMGVINPNNGDIFYNQKFKGRVTITRDTSASTAYMELSSLRSEDTAVYYCARGTDRALFAYWGQGTLVTVSS VL: DVVMTQSPLSLPVTLGQPASISCRSGQSIVHSEGNTYLEWYQQRPGQSPRLLIYKVSNRFSGVPDRFSGSGSGTDFTLKISRVEAEDLGVYYCFQGSHIPWTFGGGTKVEIKR
*A* 2.01
